assayed-system: furin, P09958;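 further: purified furin at 1:10 enzyme:substrate in 50 mM HEPES pH 7.5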
Sequence (P09958 whole entry): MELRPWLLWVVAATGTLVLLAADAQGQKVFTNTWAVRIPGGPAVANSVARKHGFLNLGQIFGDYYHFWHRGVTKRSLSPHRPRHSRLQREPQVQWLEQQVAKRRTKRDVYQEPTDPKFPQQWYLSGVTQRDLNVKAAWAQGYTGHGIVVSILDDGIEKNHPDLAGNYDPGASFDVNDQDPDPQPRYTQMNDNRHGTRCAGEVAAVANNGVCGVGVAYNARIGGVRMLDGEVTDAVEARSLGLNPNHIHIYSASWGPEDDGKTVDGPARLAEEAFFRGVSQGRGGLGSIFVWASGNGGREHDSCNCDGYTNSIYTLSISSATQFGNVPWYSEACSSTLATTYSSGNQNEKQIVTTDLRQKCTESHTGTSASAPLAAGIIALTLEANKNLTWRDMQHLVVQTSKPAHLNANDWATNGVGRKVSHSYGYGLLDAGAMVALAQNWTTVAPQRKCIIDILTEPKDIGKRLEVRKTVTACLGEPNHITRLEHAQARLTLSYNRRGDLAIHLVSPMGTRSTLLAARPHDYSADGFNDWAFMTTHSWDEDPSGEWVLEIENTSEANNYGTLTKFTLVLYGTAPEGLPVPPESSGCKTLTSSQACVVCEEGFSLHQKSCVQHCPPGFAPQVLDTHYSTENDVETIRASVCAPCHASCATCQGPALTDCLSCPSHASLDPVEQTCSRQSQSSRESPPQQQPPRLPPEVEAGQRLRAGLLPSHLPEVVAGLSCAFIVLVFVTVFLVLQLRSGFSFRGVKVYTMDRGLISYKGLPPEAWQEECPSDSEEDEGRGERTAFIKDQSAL
test-protocol: furin cleavage Z-score vs untreated control; higher = more cleavage, active = 3.5 or more, inactive = 1 or less, 8 variable residues between constant flanks
measurement-conditions: 15 min
Some of the results follow. The true hit rate is not given.
// one of active, inactive, no free text

**Q:** Hi, sorry to bother you, what did the test record for CASLERLRRGAGNASASA [FS-296] ?
**A:** inactive

**Q:** Name the outcome recorded for CACGGRGKRSAGNASASA [FS-14] in the assay.
**A:** active

**Q:** // param item: CAYDTRCFDSAGNASASA [HC1480] ; yields the recorded call
**A:** inactive

**Q:** Short answer needed: outcome of this test for CAAVARLKRSAGNASASA [FS-218] ?
**A:** active
